Molecular target: p101/p110γ protein (PI3Kγ) (Homo sapiens, UniProt P48736)
Construct: HA
Sequence (P48736 whole entry, species assumed): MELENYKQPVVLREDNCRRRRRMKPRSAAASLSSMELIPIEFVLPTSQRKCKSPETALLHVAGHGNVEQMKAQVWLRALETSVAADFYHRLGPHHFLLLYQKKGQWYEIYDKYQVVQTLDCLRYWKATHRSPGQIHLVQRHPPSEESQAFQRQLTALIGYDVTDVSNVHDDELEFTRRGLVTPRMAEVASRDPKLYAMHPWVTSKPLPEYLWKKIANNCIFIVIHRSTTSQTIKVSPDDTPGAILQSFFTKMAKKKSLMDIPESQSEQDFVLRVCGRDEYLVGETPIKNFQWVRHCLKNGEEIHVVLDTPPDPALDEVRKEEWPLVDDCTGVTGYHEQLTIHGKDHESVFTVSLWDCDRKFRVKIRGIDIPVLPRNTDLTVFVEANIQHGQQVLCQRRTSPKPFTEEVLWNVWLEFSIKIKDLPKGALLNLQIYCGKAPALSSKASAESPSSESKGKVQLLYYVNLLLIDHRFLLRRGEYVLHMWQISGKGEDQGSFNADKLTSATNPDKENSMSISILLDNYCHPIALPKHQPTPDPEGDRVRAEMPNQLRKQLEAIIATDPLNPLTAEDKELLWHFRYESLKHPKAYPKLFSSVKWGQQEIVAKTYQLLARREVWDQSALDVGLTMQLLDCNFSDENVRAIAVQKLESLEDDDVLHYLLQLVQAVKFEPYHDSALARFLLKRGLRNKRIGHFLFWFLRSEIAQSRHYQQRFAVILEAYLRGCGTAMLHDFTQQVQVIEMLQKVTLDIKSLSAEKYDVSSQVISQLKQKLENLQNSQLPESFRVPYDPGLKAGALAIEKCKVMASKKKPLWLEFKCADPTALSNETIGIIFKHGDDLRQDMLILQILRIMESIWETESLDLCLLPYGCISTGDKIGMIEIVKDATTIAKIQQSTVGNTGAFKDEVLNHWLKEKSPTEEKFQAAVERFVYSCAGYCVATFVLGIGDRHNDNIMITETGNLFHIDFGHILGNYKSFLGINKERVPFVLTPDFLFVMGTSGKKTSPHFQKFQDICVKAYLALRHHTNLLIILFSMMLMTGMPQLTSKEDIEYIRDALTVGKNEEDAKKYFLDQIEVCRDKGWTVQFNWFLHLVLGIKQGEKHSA
Sequence (Q8WYR1 whole entry partner, species assumed): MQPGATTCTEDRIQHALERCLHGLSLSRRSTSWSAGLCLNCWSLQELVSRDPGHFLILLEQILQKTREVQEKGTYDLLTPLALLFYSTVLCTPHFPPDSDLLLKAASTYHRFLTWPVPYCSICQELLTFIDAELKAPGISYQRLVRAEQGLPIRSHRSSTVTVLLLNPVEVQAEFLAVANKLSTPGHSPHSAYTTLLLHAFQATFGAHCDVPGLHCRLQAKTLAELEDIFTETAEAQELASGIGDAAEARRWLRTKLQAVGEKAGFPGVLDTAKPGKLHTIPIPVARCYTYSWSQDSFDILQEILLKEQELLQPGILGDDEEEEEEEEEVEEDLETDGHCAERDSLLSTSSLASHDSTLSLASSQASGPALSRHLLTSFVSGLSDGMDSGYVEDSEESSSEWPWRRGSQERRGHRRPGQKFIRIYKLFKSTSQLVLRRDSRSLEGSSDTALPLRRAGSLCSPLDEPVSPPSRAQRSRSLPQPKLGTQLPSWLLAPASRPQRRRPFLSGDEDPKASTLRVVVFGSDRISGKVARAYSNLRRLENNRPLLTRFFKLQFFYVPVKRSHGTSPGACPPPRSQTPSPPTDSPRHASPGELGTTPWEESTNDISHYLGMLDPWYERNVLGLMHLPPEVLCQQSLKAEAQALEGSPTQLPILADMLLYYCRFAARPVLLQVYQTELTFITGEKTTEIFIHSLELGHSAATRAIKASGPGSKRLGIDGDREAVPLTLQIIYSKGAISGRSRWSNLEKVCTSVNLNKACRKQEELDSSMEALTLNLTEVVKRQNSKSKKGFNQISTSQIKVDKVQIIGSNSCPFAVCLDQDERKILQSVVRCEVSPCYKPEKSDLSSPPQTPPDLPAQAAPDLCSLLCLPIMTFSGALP
Experiment: PI3Kγ In Vitro Kinase Assay
Settings: purified recombinant p101/p110γ with G protein β1/γ2 subunits; 20 μM ATP, [γ-32P-ATP]; 25 μM PIP2 lipid micelles; 20 minutes at room temperature
pIC50: −log10 of the molar value.

- compound: "COc1ccc2oc(C(=O)Nc3nnn[nH]3)c(OC3CCCC3C)c2c1 (stereo not drawn)"
  pIC50: 6.52
- compound: "C=C(C)C1CCC(C)C(Oc2c(C(=O)Nc3nnn[nH]3)oc3ccc(OC)cc23)C1 (stereo not drawn)"
  pIC50: 6.15
- compound: "COc1ccc2oc(C(=O)Nc3nnn[nH]3)c(OC3CCCCC3C)c2c1 (stereo not drawn) [Example 18]"
  pIC50: 6.89
- compound: "O=C(Nc1nnn[nH]1)c1oc2ccc(Cl)cc2c1OCC1CCCC1"
  pIC50: 5.98
- compound: "COc1ccc2oc(C(=O)Nc3nnn[nH]3)c(OC3CC(C)CC(C)C3)c2c1 (stereo not drawn)"
  pIC50: 7.00
- compound: "CC1CC(C)CC(Oc2c(C(=O)Nc3nnn[nH]3)oc3ccc(Cl)cc23)C1 (stereo not drawn)"
  pIC50: 6.32
- compound: "COc1ccc2oc(C(=O)Nc3nnn[nH]3)c(OC3CCCC(C)C3)c2c1 (stereo not drawn)"
  pIC50: 7.17
- compound: "O=C(Nc1nnn[nH]1)c1oc2ccc(Cl)cc2c1OCC1CCC1"
  pIC50: 5.51
- compound: "COc1ccc2oc(C(=O)Nc3nnn[nH]3)c(OC3CCCCC3C)c2c1 (stereo not drawn) [Example 5]"
  pIC50: 6.74
- compound: "O=C(Nc1nnn[nH]1)c1oc2ccc(Cl)cc2c1OC1CCCCC1"
  pIC50: 6.19
- compound: "O=C(Nc1nnn[nH]1)c1oc2ccc(Cl)cc2c1OCC1CC1"
  pIC50: 5.03
- compound: "O=C(Nc1nnn[nH]1)c1oc2ccc(Cl)cc2c1OC1CCC1"
  pIC50: 5.69
- compound: "O=C(Nc1nnn[nH]1)c1oc2ccc(Cl)cc2c1OC1CCCCCC1"
  pIC50: 6.02
- compound: "CC1CCC(Oc2c(C(=O)Nc3nnn[nH]3)oc3ccc(Cl)cc23)CC1C (stereo not drawn)"
  pIC50: 5.96
- compound: "CC(Oc1c(C(=O)Nc2nnn[nH]2)oc2ccc(Cl)cc12)C1CCCC1 (stereo not drawn)"
  pIC50: 5.57
